Experimental system: mGlyT-1b (Mus musculus, UniProt P28571)
Sequence (P28571 1-651 isoform P28571-2): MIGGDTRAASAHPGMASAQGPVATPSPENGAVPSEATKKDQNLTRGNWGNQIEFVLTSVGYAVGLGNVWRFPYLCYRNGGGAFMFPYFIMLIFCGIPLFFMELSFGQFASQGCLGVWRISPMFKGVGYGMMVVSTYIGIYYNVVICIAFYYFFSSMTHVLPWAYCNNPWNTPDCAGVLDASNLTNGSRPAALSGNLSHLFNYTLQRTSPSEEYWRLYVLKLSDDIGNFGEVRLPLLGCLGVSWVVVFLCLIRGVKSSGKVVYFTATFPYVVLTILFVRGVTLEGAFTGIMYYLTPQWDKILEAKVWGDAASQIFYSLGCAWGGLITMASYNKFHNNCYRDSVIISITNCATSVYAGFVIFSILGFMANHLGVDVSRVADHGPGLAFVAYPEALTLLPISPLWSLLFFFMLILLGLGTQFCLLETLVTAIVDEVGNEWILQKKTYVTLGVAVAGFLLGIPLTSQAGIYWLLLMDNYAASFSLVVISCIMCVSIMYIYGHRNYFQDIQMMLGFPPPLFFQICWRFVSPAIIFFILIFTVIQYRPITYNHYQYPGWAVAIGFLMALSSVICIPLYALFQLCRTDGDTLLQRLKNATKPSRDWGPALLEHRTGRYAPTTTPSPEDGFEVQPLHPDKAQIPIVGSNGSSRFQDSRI
Assay explanation: Glycine Uptake Inhibition Assay (mGlyT-1b)
Experimental parameters: [3H]-glycine uptake inhibition at GlyT-1, Flp-in-CHO cells transfected with mGlyT-1b cDNA
Measured endpoint: IC50 (nM)

Compound	Unit label	IC50
CCC(C)Oc1ccc(S(C)(=O)=O)cc1C(=O)N1CCN(c2ccc(C(C)=O)cc2F)CC1 (racemic) [compound 319]	nM	31

(I) O=C(c1cc([N+](=O)[O-])ccc1OCCCl)N1CCN(c2ccc(C(F)(F)F)cc2)CC1 [Example 92]
(II) CS(=O)(=O)c1ccc(OC2CCCC2)c(C(=O)N2CCN(c3ccc(S(=O)(=O)C(F)(F)F)cc3)CC2)c1 [Example 329]
(III) CCCOc1ccc([N+](=O)[O-])cc1C(=O)N1CCN(c2ccc(C(F)(F)F)cc2)CC1 [Example 72]
(IV) CNS(=O)(=O)c1ccc(OC2CCCC2)c(C(=O)N2CCN(c3ccc(C(F)(F)F)cc3)CC2)c1 [compound 527]
Hey, can you sort those compounds up there by IC50, smallest first? Returns: the labels listed in the requested order.
IV, II, III, I

(1) CC(C)COc1ccc(S(C)(=O)=O)cc1C(=O)N1CCN(c2ccc(S(=O)(=O)C(F)(F)F)cc2)CC1 [Example 330]
(2) CNS(=O)(=O)c1ccc(OC(F)(F)F)c(C(=O)N2CCN(c3ccc(C#N)c(F)c3)CC2)c1 [compound 111]
(3) COCCOc1ccc([N+](=O)[O-])cc1C(=O)N1CCN(c2ccc(C(C)=O)cc2F)CC1 [Example 54]
Hey, can you sort those compounds up there by IC50, smallest first? Returns: the labels listed in the requested order.
1, 2, 3
(1: 18 nM, 2: 35 nM, 3: 50 nM)

(I) CC(Oc1ccc(S(C)(=O)=O)cc1C(=O)N1CCN(c2ccc(C#N)cc2F)CC1)C(F)(F)F (racemic) [compound 299]
(II) CC(Oc1ccc(S(C)(=O)=O)cc1C(=O)N1CCN(c2ccc(C#N)cc2)CC1)C(F)(F)F (racemic) [compound 298]
Lab note: check whether I or II shows the higher recorded IC50. Write down the label of the entry you select.
I

(P) CNS(=O)(=O)c1ccc(OCC(C)(C)C)c(C(=O)N2CCN(c3ccc(C(C)=O)cc3F)CC2)c1 [compound 515]
(Q) CS(=O)(=O)c1ccc(N2CCN(C(=O)c3cc(S(C)(=O)=O)ccc3OC3CCCCC3)CC2)c(F)c1 [compound 288]
Lab note: check whether P or Q shows the higher recorded IC50. Write down the label of the entry you select.
P
(P: 40 nM, Q: 25 nM)
